src = patent US9657015B2

TESTED TARGET: Human neutrophil elastase (Homo sapiens (Human), UniProt P08246)
Sequence (P08246 30-247): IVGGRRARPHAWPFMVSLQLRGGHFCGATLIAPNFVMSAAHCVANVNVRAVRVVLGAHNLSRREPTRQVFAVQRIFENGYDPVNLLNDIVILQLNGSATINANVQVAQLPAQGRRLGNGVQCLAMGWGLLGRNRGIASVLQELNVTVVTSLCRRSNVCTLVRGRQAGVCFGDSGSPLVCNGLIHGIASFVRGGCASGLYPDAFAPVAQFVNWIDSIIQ
ASSAY COMMENT: Human Neutrophil Elastase Assay
TEST CONTEXT: substrate MeOSuc-Ala-Ala-Pro-Val-AMC 250 μM, pH 7.5, room temperature
READOUT NAME: IC50 (nM)
Response body: numeric value in nM, unit text excluded.

For orientation, consider the following solved cases.
N#Cc1ccc([C@H]2NC(=O)N(c3cccc(C(F)F)c3)C3=C2C(=O)NCC3)cc1 ... 3.2
CNC(=O)CN1C(=O)N(c2cccc(C(F)(F)F)c2)C2=C(C(=O)NCC2)C1c1ccc(C#N)cc1 (racemic) ... 2

Proceeding to the next compound to report its IC50.
Task: Any idea what its IC50 is? The compound is CN1CCC2=C(C1=O)C(c1ccc(C#N)cc1-c1ccncc1)N(C)C(=O)N2c1cccc(C(F)(F)F)c1 (stereo not shown)
Result: 1.3

###

TESTED TARGET: Human neutrophil elastase (Homo sapiens (Human), UniProt P08246)
ASSAY COMMENT: Human Neutrophil Elastase Assay
TEST CONTEXT: substrate MeOSuc-Ala-Ala-Pro-Val-AMC 250 μM, pH 7.5, room temperature
As shown below, each of these compounds has a reported IC50 value.
// units = nM; emit number, no label

N#Cc1ccc(C2NC(=O)N(c3cccc(C(F)(F)F)c3)C3=C2C(=O)N(C(=O)NCCCO)CC3)cc1 (centres unmarked) [Example 20] ... 3.7
CN1C(=O)N(c2cccc(C(F)(F)F)c2)C2=C(C(=O)NCC2)C1c1ccc(C#N)cc1 (centres unmarked) [Example 5] ... 1.9
CCNC(=O)CN1C(=O)N(c2cccc(C(F)(F)F)c2)C2=C(C(=O)NCC2)C1c1ccc(C#N)cc1 (centres unmarked) [Example 12.2] ... 2.4

Task: Need IC50, item CC1(C)CC2=C(C(=O)N1)C(c1ccc(C#N)cc1)NC(=O)N2c1cccc(C(F)(F)F)c1 (centres unmarked) [Example 3]
Result: 9.8

Task: Bench note: what IC50 did COCCNC(=O)CN1C(=O)N(c2cccc(C(F)(F)F)c2)C2=C(C(=O)NCC2)C1c1ccc(C#N)cc1 (centres unmarked) [Example 12.4] show?
Result: 2

Task: Record request: IC50 value, item N#Cc1ccc(C2NC(=O)N(c3cccc(C(F)F)c3)C3=C2C(=O)NCC3)cc1 (racemic) [Example 2]
Result: 6.9

Task: What value of IC50 has been reported for the following compound? N#Cc1ccc(C2NC(=O)N(c3cccc(C(F)(F)F)c3)C3=C2C(=O)N(C(=O)NCCO)CC3)cc1 (centres unmarked) [Example 18]
Result: 3.8

Task: For the compound shown here, CN1C(=O)N(c2cccc(C(F)(F)F)c2)C2=C(C(=O)NCC2)[C@@H]1c1ccc(C#N)cc1CO [Example 32B] , give the reported IC50.
Result: 39

Task: Given the entry CNC(=O)CN1C(=O)N(c2cccc(C(F)(F)F)c2)C2=C(C(=O)N(C)CC2)C1c1ccc(C#N)cc1 (centres unmarked) [Example 15] , report its measured IC50.
Result: 3.2

Task: Which IC50 is reported for this compound? CN1CCC2=C(C1=O)C(c1ccc(C#N)cc1-c1cccnc1)N(C)C(=O)N2c1cccc(C(F)(F)F)c1 (centres unmarked) [Example 36.1]
Result: 1.4

Task: Field request: IC50 | item: CN1CCC2=C(C1=O)[C@@H](c1ccc(C#N)cc1)NC(=O)N2c1cccc(C(F)(F)F)c1 [Example 4A]
Result: 1.3

Task: What value of IC50 has been recorded for this entry: N#Cc1ccc(C2C3=C(CCNC3=O)N(c3cccc(C(F)(F)F)c3)C(=O)N2CC(=O)O)cc1 (centres unmarked) [Example 10]
Result: 2.7

Task: Consider the compound shown here: CCNC(=O)N1CCC2=C(C1=O)C(c1ccc(C#N)cc1)NC(=O)N2c1cccc(C(F)(F)F)c1 (centres unmarked) [Example 19] What is its recorded IC50?
Result: 4.9

###

Recorded Papp B→A at 10 µM, one value per entry.
ASSAY COMMENT: Drug transport across human Caco-2 cells
Format: in vitro ADME
TEST CONTEXT: human; basal-to-apical, Caco-2 monolayers, pH 7.2, 37° C.; read-out: PEBA
Entry format: amount then unit.

Here's what some known entries look like.
COC(=O)CN1C(=O)N(c2cccc(C(F)(F)F)c2)C2=C(C(=O)NCC2)C1c1ccc(C#N)cc1 (centres unmarked) ... 63 ×10⁻⁶ cm/s
CN1CCC2=C(C1=O)C(c1ccc(C#N)cc1-c1ccc(=O)n(C)n1)N(C)C(=O)N2c1cccc(C(F)(F)F)c1 (centres unmarked) ... 91 ×10⁻⁶ cm/s
CN1CCC2=C(C1=O)C(c1ccc(C#N)cc1C(N)=O)N(C)C(=O)N2c1cccc(C(F)(F)F)c1 (centres unmarked) ... 59 ×10⁻⁶ cm/s

Task: Which Papp B→A at 10 µM value is on record for CN1C(=O)N(c2cccc(C(F)(F)F)c2)C2=C(C(=O)NCC2)[C@H]1c1ccc(C#N)cc1-c1cnn(C)c1 [Example 31A] ?
Result: 100 ×10⁻⁶ cm/s

Task: // Papp B→A at 10 µM lookup, key: CN1C(=O)N(c2cccc(C(F)(F)F)c2)C2=C(C(=O)NCC2)[C@H]1c1ccc(C#N)cc1CO [Example 32A]
Result: 61 ×10⁻⁶ cm/s

###

TESTED TARGET: neutrophil elastase in human plasma (Homo sapiens (Human), UniProt P08246)
Sequence (P08246 30-247): as above
ASSAY COMMENT: Neutrophil elastase inhibitory activity in human plasma
Type: biochemical
TEST CONTEXT: human plasma assay (zymosan-stimulated blood plasma), substrate 250 μM, pH 7.5
READOUT NAME: pIC50
Scale: negative log10 of molar concentration, which is what pIC50 denotes.

CN1C(=O)N(c2cccc(C(F)(F)F)c2)C2=C(C(=O)NCC2)[C@H]1c1ccc(C#N)cc1 ... 9.00
CNC(=O)CN1C(=O)N(c2cccc(C(F)(F)F)c2)C2=C(C(=O)NCC2)C1c1ccc(C#N)cc1 (racemic) ... 8.55
COC(=O)CN1C(=O)N(c2cccc(C(F)(F)F)c2)C2=C(C(=O)NCC2)C1c1ccc(C#N)cc1 (centres unmarked) ... 8.51
CN1CCC2=C(C1=O)C(c1ccc(C#N)cc1CO)N(C)C(=O)N2c1cccc(C(F)(F)F)c1 (centres unmarked) ... 8.85
N#Cc1ccc(C2C3=C(CCNC3=O)N(c3cccc(C(F)(F)F)c3)C(=O)N2CC(=O)N2CCC(F)C2)cc1 (centres unmarked) ... 8.96
N#Cc1ccc([C@H]2NC(=O)N(c3cccc(C(F)F)c3)C3=C2C(=O)NCC3)cc1 ... 8.27

Task: Item N#Cc1ccc(C2NC(=O)N(c3cccc(C(F)(F)F)c3)C3=C2C(=O)N(C(=O)NCCCO)CC3)cc1 (centres unmarked) has what recorded pIC50?
Result: 8.16

Task: Can you look up the measured pIC50 of CN1CCC2=C(C1=O)C(c1ccc(C#N)cc1-c1cnn(C)c1)N(C)C(=O)N2c1cccc(C(F)(F)F)c1 (centres unmarked) for me?
Result: 8.64

###

TESTED TARGET: Human neutrophil elastase (Homo sapiens (Human), UniProt P08246)
ASSAY COMMENT: Human Neutrophil Elastase Assay
Type: biochemical
TEST CONTEXT: substrate MeOSuc-Ala-Ala-Pro-Val-AMC 250 μM, pH 7.5, room temperature
READOUT NAME: IC50 (nM)
Respond with the bare value in nM.

Observe how each entry below is paired with its result.
N#Cc1ccc(C2NC(=O)N(c3cccc(C(F)(F)F)c3)C3=C2C(=O)NCC3)c(Br)c1 (stereo not shown) [Example 21] ... 1.9
CC1(C)CC2=C(C(=O)N1)C(c1ccc(C#N)cc1)N(CC(=O)O)C(=O)N2c1cccc(C(F)(F)F)c1 (stereo not shown) [Example 13] ... 4.3

Task: // IC50 lookup, key: N#Cc1ccc([C@@H]2NC(=O)N(c3cccc(C(F)(F)F)c3)C3=C2C(=O)NCC3)cc1 [Example 1B]
Result: 940

Task: Which IC50 value belongs to CN1C(=O)N(c2cccc(C(F)F)c2)C2=C(C(=O)NCC2)[C@@H]1c1ccc(C#N)cc1 [Example 8B] ?
Result: 36

###

ASSAY COMMENT: Aqueous solubility (High Throughput Method)
Format: physicochemical
TEST CONTEXT: McIlvaine buffer pH 6.8 with 2.5% DMSO, aqueous buffer, kinetic from dmso stock; McIlvaine buffer pH 6.8, 2.5% DMSO, 24 h shaking
READOUT NAME: solubility at 24 h (µg/mL)
Give just the number in µg/mL; leave the unit off.

Task: # get_value(readout='solubility at 24 h', item= CN1C(=O)N(c2cccc(C(F)(F)F)c2)C2=C(C(=O)NCC2)C1c1ccc(C#N)cc1-c1ccncn1 (stereo not drawn) )
Result: 84

Task: Param item = CN1CCC2=C(C1=O)C(c1ccc(C#N)cc1C(N)=O)N(C)C(=O)N2c1cccc(C(F)(F)F)c1 (stereo not drawn) ; retrieve measured solubility at 24 h.
Result: 78
